measurement notes: NCI Yeast Anticancer Drug Screen. Data for the mec2-1 strain (AID 157)
experimental parameters: S. cerevisiae mec2-1 strain, at 50.0 µM (retest, dose inferred, filed as 5.0)
This is part of a sample that, as a whole, favours compounds with a hit. Of some 79,000 tested, about 15% had one in any assay. Active and inactive are the calls of the source. Cut-off read from the data, not from the text of the source: active = growth inhibition above about 70%; inactive = the rest.
Outcomes: active, inactive

>>> class("Clc1nc2cc3nc(Cl)c(Cl)nc3cc2nc1Cl")
"active"
>>> class("CC(=O)c1sc(Nc2ccc(Cl)c(Cl)c2)nc1C")
"inactive"
>>> class("CC(C)C1(C)C(C#N)(C#N)C1(C#N)C#N")
"active"
>>> class("CCCCCCCCCCOC(=O)c1ccccn1")
"active"
>>> class("CN(/N=C/C(O)C(O)C(O)CO)c1ccccc1 (stereo unspecified)")
"active"
>>> class("CCCCCCCCCCCCCCCC[N+](C)(C)C(C)c1ccccc1 (stereo unspecified)")
"active"

Hello, the source for this data is PubChem BioAssay (NCI), in case you need it.
